ASSAY INFO: Binding affinity to HIV1 envelope gp41 by NMR study
Parameters: species or system Human immunodeficiency virus 1
Overview of reported Kd across a group of compounds:

SMI	Kd
O=C(O)c1ccccc1C(=O)N(Cc1cccc(Oc2ccccc2)c1)Cc1ccccn1	> 5000 µM

The reported Kd of the compound `COc1ccc(-c2ccc(CN(C(=O)c3cc(C(=O)O)c(C(=O)O)cc3C(=O)O)[C@H]3CCCc4ccccc43)cc2)cc1` was 789 µM
